system: T1, human CD70 (human, UniProt P32970 1-193)
T1 construct: also called hu CD70; CD27L
T1 sequence: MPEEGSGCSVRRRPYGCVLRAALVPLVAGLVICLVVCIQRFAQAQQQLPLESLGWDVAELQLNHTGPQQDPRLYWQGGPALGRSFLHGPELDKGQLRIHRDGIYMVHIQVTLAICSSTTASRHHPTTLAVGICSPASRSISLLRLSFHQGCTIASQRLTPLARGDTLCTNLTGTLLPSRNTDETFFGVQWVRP
experimental-details: FACS on CHO cells, periplasmic scFv
value-kind: binding result

CD70-9 (scFv, As m32) scFv: QVQLVQSGAEVKKPGASVKVSCKASGYTFTSYGISWVRQAPGQCLEWMGWISAYNGYTHYAQKLQGRVTMTTDTSTSTAYMELRSLRSDDTAVYYCARDYGGNDYYGMDVWGQGTTVTVSSGGGGSGGGGSGGGGSQSVLTQPPSASGTPGQRVTISCSGSSSNIGINYVYWYQQLPGTAPKLLIYRSDQRPSGVPDRFSGSKSGTSASLALSGLRSEDEADYYCAAWDDSLSGVVFGCGTKLTVL    binds
CD70-74 (scFv, As m32) scFv: EVQLLESGGGLVQPGGSLRLSCAASGFTFSSYAMSWVRQAPGKGLEWVSAISGSGGSTFYADSVQGRFTISRDNSKNTLYLQVNSLRAEDTAVYYCARHDYSNYPYFDYWGQGTLVTVSSGGGGSGGGGSGGGGSEIVLTQSPGTLSLSPGERATLSCRASQSVRGNYLAWYQQKPGQAPRLLIYGASSRATGIPDRFSGSGSGTDFTLTISRLEPEDFAVYYCQQYGYSPFTFGPGTKVDIK    binds
CD70-41 (scFv, As m32) scFv: EVQLLESGGGMVQPGGSLRLSCAASGFTFSSYAMSWVRQAPGKGLEWVSAISGSGGRTFYADSVEGRFTISRDNSKNTLYLQMNSLRAEDTAVYYCTKHDYSNYPYFDYWGQGTLVTVSSGGGGSGGGGSGGGGSEIVLTQSPGTLSLSPGERATLSCRASQSVRSSYLAWYQQKPGQAPRLLIYGASSRATGIPDRFSGSGSGTDFTLTISRLEPEDFAVYYCQQYGDLPFTFGPGTKVDIK    binds
